Tested on: MALME-3M melanoma
method: NCI tumour cell line growth inhibition, 48 h
What TGI was measured for each of the following?
One number for each entry, in µM.

Kindly note the recorded TGI for CC(C)(C)c1cn2cccc(C(=O)N3CCN(CC(=O)Nc4ccc(Cl)cc4C(=O)c4ccccc4Cl)CC3)c2n1 , which is 38.8

Further cases:
Kindly note the recorded TGI for CCCN1CN(c2ccccc2)C2(CCN(CCCC(=O)c3ccc(F)cc3)CC2)C1=O , which is 30.1

----------
Test system: MCF7 breast
method: NCI tumour cell line growth inhibition, 48 h; in the data active means GI50 below about 0.43 µM; inactive means the rest
Assign a class; possible classes are active, inactive

Past entries and their recorded results:
Ask: Each compound tested received a call. Report the one for Cn1ccnc1C(=O)/C=C/c1ccc(C(=O)Nc2ccccc2O)cc1 .
Reply: inactive

Ask: Each compound tested received a call. Report the one for COc1cc(C(=O)/C=C/c2c(-c3ccc(F)cc3)nc3ncccn23)cc(OC)c1OC .
Reply: inactive

Ask: Each compound tested received a call. Report the one for COc1cc(C(=O)N2CCN(c3ccccc3OC)CC2)c(N)cc1OCc1ccccc1 .
Reply: inactive

Ask: Each compound tested received a call. Report the one for COc1cc(OC)c2cc(C(=O)O)c(=O)oc2c1 .
Reply: inactive

Ask: Each compound tested received a call. Report the one for Cc1ccc(NSc2ccccc2[N+](=O)[O-])cc1 .
Reply: active

Ask: Each compound tested received a call. Report the one for COc1ccc(N(C)c2nc(Cl)nc3ccn(C)c23)cc1 .
Reply: active

Ask: Each compound tested received a call. Report the one for COC(=O)c1oc2c(O)c(OC)c(Br)cc2c1C .
Reply: inactive

Ask: Each compound tested received a call. Report the one for COc1cc2c(cc1OCCCCCn1c(-c3ccco3)nc3ccccc31)N=C[C@@H]1CCCN1C2=O .
Reply: active

Further cases:
Ask: Each compound tested received a call. Report the one for C=C(C)[C@@H]1CC[C@]2(C(=O)O)CC[C@]3(C)[C@H](CC[C@@H]4[C@@]5(C)C[C@@H](CC#Cc6ccc(Br)cc6)C(=O)C(C)(C)[C@@H]5CC[C@]43C)[C@@H]12 .
Reply: inactive

Ask: Each compound tested received a call. Report the one for O[C@@H]1CCCN1Cc1cc2cc3c(cc2c2cc(OCc4ccccc4)ccc12)OCO3 .
Reply: inactive

Ask: Each compound tested received a call. Report the one for O=c1oc2ccc(F)cc2c(=O)n1-c1ccc(Cl)cc1F .
Reply: inactive

Ask: Each compound tested received a call. Report the one for c1ccc2c(-c3nc4ccccc4[nH]3)cccc2c1 .
Reply: inactive

Ask: Each compound tested received a call. Report the one for COc1cc(/C=C/c2sc3ccccc3[n+]2C)ccc1N(C)C .
Reply: inactive

Ask: Each compound tested received a call. Report the one for COc1ccc(Cn2cc3c(c2-c2ccc(O)cc2)CCc2cnoc2-3)cc1 .
Reply: active

Ask: Each compound tested received a call. Report the one for COc1ccc2c(c1)C(=O)/C(=C/c1ccc([N+](=O)[O-])s1)O2 .
Reply: active

Ask: Each compound tested received a call. Report the one for CS(=O)(=O)Nc1cccc(-c2ccc3c(NC(=O)C4CC4)n[nH]c3c2)c1 .
Reply: inactive

Ask: Each compound tested received a call. Report the one for N#Cc1c(NC(=O)c2cccc3ccccc23)sc2c1CCCC2 .
Reply: active

Ask: Each compound tested received a call. Report the one for COc1cc(Nc2ncc3c(C)nc(-c4cccc(Oc5ccccc5)c4)n3n2)cc(OC)c1OC .
Reply: inactive

FYI, the data here is from PubChem BioAssay (NCI).
